Attribute: composite z-score
# Tested on: Lefty1
# Method summary: Lefty1 binders on small-molecule microarrays, primary screen, biochemical, small-molecule microarray, 635/667 nm fluorescence (AID 1139)
# Condition description: small-molecule microarray binding, fluorescence 635/667; higher = more signal
Keep the answer to the number alone.

Please review the following examples before continuing.
>>> value("C=CCC(OC(C)=O)[C@@H]1[C@@H](N(Cc2cccc3ccccc23)C(=O)c2cccc3ccccc23)c2cc(OCCCO)ccc2N1C(=O)Cc1ccc2ccccc2c1 (some centres undefined)")
0.093
>>> value("O=C(NCCO)C1=C[C@H](Oc2ccccc2I)[C@@H](O)[C@H](NCc2ccc(F)cc2)C1")
1.45
>>> value("CCCCC=C[C@@H](NC(=O)c1ccc(C(F)(F)F)cc1)c1ccccc1")
-0.671

Now let's try a different one.
Value wanted: composite z-score (Lefty1) of entry NC(=O)[C@@]1(CCS(=O)(=O)c2ccccc2)COC(c2ccc(OCCCO)cc2)=N1
-0.643
